This collection of values is drawn from the Immune Epitope Database (IEDB).

Molecular target: HLA-A*68:02
Assay: IEDB peptide-MHC binding, purified MHC/competitive/fluorescence; filed as Kd, often an IC50 or EC50 that approximates it; bounds were set here for any values at or beyond the usual limits of such assays
Settings: source organism: Orthomarburgvirus marburgense
endpoint: Kd

**Query** Kd lookup needed for SEINNLNLT , thanks.
**Result** ≥ 20 µM

----------
Target: HLA-A*31:01
Experiment: IEDB peptide-MHC binding, purified MHC/direct/fluorescence; filed as Kd, often an IC50 or EC50 that approximates it; bounds were set here for any values at or beyond the usual limits of such assays
Details: source organism: Orthohantavirus andesense
pKd: −log10 of the molar value.
endpoint: pKd

**Query** Find pKd (HLA-A*31:01) for the entry YRRKLTNPA
**Result** ≤ 4.70

----------
Biological target: HLA-B*58:01
Assay: IEDB peptide-MHC binding, purified MHC/competitive/fluorescence; filed as Kd, often an IC50 or EC50 that approximates it; bounds were set here for any values at or beyond the usual limits of such assays
Conditions: source organism: Yersinia pestis Antiqua
endpoint: Kd

**Query** Find Kd (HLA-B*58:01) for the entry SAYERGLRY
**Result** ≥ 20 µM

----------
Molecular target: HLA-B*45:06
Experiment: IEDB peptide-MHC binding, purified MHC/competitive/fluorescence; filed as Kd, often an IC50 or EC50 that approximates it; bounds were set here for any values at or beyond the usual limits of such assays
Settings: source organism: Pan troglodytes
endpoint: Kd

**Query** Kd lookup needed for RRHWGGNVL , thanks.
**Result** ≥ 5 µM

----------
Molecular target: HLA-A*02:01
Test: IEDB peptide-MHC binding, purified MHC/competitive/radioactivity; filed as Kd, often an IC50 or EC50 that approximates it; bounds were set here for any values at or beyond the usual limits of such assays
Details: source organism: Dengue virus 2 Puerto Rico/PR159-S1/1969
endpoint: pKd
pKd (log units): -log10 of the concentration in mol/L.

**Query** pKd lookup needed for TLYAVATTFI , thanks.
**Result** 7.06

----------
Biological target: HLA-B*15:17
Experiment: IEDB peptide-MHC binding, purified MHC/direct/fluorescence; filed as Kd, often an IC50 or EC50 that approximates it; bounds were set here for any values at or beyond the usual limits of such assays
Details: source organism: Vibrio cholerae
endpoint: Kd

**Query** Kd lookup needed for FPLTQRDVL , thanks.
**Result** ≥ 20 µM

----------
Target: HLA-B*45:06
Assay: IEDB peptide-MHC binding, purified MHC/competitive/fluorescence; filed as Kd, often an IC50 or EC50 that approximates it; bounds were set here for any values at or beyond the usual limits of such assays
Details: source organism: Bacillus anthracis str. A2012
pKd: −log10 of the molar value.
endpoint: pKd

**Query** pKd lookup needed for YMKERFTVL , thanks.
**Result** ≤ 5.30

----------
Target: HLA-B*15:01
Experiment: IEDB peptide-MHC binding, purified MHC/competitive/fluorescence; filed as Kd, often an IC50 or EC50 that approximates it; bounds were set here for any values at or beyond the usual limits of such assays
Details: source organism: Escherichia coli 536
endpoint: Kd
Please don't drop the unit; write it after the number.

**Query** Find Kd (HLA-B*15:01) for the entry ISRNTVKRY
**Result** 284 nM

----------
Molecular target: HLA-B*08:01
Assay: IEDB peptide-MHC binding, purified MHC/direct/fluorescence; filed as Kd, often an IC50 or EC50 that approximates it; bounds were set here for any values at or beyond the usual limits of such assays
Conditions: source organism: Cryptosporidium parvum
endpoint: Kd

**Query** Kd lookup needed for DFIGKTIGF , thanks.
**Result** ≥ 20 µM
